TARGET OR TEST SYSTEM: UniProtKB O95342
Sequence (O95342 whole entry): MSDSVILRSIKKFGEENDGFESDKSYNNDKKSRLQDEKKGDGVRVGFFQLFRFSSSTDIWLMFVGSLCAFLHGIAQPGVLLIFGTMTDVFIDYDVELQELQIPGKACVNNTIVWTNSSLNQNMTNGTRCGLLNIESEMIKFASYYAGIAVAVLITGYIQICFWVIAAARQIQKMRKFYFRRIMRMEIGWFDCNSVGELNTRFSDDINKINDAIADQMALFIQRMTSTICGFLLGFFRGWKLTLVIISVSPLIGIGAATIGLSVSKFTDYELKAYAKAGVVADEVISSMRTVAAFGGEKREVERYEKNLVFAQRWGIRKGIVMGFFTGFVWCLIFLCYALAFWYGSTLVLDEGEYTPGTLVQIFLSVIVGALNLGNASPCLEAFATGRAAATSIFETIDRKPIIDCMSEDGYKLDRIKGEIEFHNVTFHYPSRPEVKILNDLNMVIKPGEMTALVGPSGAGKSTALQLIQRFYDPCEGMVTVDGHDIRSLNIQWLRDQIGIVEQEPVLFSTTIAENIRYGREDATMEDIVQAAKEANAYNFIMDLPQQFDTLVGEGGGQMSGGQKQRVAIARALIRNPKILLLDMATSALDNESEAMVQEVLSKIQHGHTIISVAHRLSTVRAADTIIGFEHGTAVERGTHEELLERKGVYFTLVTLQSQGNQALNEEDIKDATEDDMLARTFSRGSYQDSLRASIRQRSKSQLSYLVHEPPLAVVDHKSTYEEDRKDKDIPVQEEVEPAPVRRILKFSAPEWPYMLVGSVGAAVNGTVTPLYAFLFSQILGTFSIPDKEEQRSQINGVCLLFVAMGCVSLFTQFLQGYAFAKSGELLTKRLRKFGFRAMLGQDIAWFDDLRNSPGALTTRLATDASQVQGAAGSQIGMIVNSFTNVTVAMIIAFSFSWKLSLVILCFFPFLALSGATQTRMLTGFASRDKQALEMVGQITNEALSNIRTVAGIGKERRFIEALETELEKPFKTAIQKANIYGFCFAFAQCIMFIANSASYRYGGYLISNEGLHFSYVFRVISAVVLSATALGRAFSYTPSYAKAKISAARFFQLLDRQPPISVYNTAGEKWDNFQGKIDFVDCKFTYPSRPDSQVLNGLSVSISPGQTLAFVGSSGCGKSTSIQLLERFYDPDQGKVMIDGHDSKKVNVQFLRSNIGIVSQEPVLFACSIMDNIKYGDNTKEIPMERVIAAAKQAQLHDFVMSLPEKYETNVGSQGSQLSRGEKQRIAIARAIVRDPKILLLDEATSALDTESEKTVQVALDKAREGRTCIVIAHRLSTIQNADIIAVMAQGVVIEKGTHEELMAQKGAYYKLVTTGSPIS
ASSAY TEXT: Inhibition of human BSEP expressed in fall armyworm sf9 cell plasma membrane vesicles assessed as reduction in vesicle-associated [3H]-taurocholate transport preincubated for 10 mins prior to ATP addition measured after 15 mins in presence of [3H]-taurocholate by topcount based membrane vesicle transport assay
Type: ADME
pIC50: −log10 of the molar value.
ENDPOINT NAME: pIC50

>>> result("CC(C)(C)NCC(O)c1cc(O)cc(O)c1 (centres undefined) [TERBUTALINE]")
"< 3.87"
>>> result("CCN(CC)CCNC(=O)c1cc(Cl)c(N)cc1OC [METOCLOPRAMIDE]")
"< 3.87"
>>> result("Cc1ccc(-c2ncc(Cl)cc2-c2ccc(S(C)(=O)=O)cc2)cn1 [ETORICOXIB]")
"4.22 to 4.35"

Below: the item to evaluate.
Problem: Form field: reported pIC50 of Cc1nccn1CC1CCc2c(c3ccccc3n2C)C1=O (centres undefined) [ONDANSETRON]
Result: < 3.87

Cited source: ChEMBL document CHEMBL4011581
